test: Intrinsic clearance in human liver microsomes
Quantity kind: microsomal CLint (µL/min/mg)

For orientation, consider the following solved cases.
>>> measured("N#CC[C@@H]1CN(c2ccc3c(n2)NC(=O)CO3)[C@H](c2ccccc2)CO1")
11.9
>>> measured("O=C1COc2ccc(N3C[C@@H](CO)OC[C@H]3c3ccccc3)nc2N1")
14.8
>>> measured("O=C1COc2ccc(N3CCOC[C@H]3c3ccccc3)cc2N1")
18.3

P = C[C@@H]1CN(c2ccc3c(c2)NC(=O)CO3)[C@H](c2ccccc2)CO1
Q = C[C@@H]1CN(c2ccc3c(n2)NC(=O)CO3)[C@H](c2ccc(F)cc2)CO1
Q: Smaller microsomal CLint value, P vs Q ? Bench note: the answer is the label of the chosen record.
Ans: Q

* * *

target: Glucocorticoid receptor (Homo sapiens, UniProt P04150); assay: Displacement of [3H]-dexamethasone from recombinant human GST-tagged GR ligand binding domain after 4 hrs by liquid scintillation counting
Sequence (P04150 whole entry, the tested form may be a part): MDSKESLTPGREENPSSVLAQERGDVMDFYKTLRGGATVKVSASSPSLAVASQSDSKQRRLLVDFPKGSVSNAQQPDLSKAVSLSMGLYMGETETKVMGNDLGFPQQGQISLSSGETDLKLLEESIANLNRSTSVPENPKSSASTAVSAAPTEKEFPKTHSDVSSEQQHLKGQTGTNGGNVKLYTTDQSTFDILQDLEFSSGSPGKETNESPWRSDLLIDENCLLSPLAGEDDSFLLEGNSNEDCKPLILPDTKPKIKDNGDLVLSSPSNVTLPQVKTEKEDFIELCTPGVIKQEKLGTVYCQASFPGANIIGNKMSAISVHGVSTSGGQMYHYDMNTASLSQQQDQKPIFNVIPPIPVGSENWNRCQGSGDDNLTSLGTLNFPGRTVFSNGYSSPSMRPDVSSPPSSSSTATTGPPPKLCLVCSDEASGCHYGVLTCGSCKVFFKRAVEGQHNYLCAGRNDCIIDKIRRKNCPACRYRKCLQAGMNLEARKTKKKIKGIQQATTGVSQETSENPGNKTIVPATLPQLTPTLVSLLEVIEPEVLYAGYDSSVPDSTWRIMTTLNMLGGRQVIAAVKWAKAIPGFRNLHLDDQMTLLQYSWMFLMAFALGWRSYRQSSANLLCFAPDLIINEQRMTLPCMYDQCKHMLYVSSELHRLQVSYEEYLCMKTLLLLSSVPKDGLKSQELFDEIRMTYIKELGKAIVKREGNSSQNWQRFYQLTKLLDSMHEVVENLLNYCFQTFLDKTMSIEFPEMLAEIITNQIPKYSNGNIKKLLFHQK
pIC50: −log10 of the molar value.
Quantity kind: pIC50

Q: Tell us which pIC50 value is on record for C[C@@H]1CN(c2ccc3c(n2)NC(=O)CO3)[C@H](c2ccccc2)CO1
Ans: < 5.00

* * *

assay: Clearance in rat at 1 mg/kg, iv; conditions: in vivo
Quantity kind: clearance (mL/min/kg)

>>> measured("C[C@@H]1CN(c2ccc3c(c2)NC(=O)CO3)[C@H](c2ccccc2)CO1")
54

P = C[C@@H]1CN(c2ncc3c(n2)NC(=O)CO3)[C@H](c2ccccc2)CO1
Q = O=C1COc2ccc(N3C[C@@H](CO)OC[C@H]3c3ccccc3)nc2N1
Q: Pick the one with the larger clearance: P vs Q Pick one and reply with its label.
Ans: P
(P: 95 mL/min/kg, Q: 52 mL/min/kg)

* * *

experiment: Fraction unbound in human plasma; type: ADME, cell-free
Quantity kind: fraction unbound
API note: the answer field is a bare number with no unit suffix.

Q: Return value of fraction unbound for input C[C@@H]1CN(c2ccc3c(n2)NC(=O)CO3)[C@H](c2ccccc2)CO1 , no commentary.
Ans: 0.15

* * *

system: MDR1 (P-gp); assay: Apparent permeability across apical to basolateral side in MDCK cells expressing human MDR1; type: ADME, cell-based, Canis lupus familiaris; conditions: dog
Quantity kind: Papp A→B (×10⁻⁶ cm/s)
The answer is to be given in ×10⁻⁶ cm/s; state only the numeric part.

Q: Quote Papp A→B with test system MDR1 (P-gp) for C[C@@H]1CN(c2ccc3c(n2)NC(=O)CO3)[C@H](c2ccccc2)CO1
Ans: 24.9

* * *

assay: Apparent permeability in RRCK cells; assay type: ADME, cell-based, Canis lupus familiaris, MDCKII-LE; conditions: dog, MDCK
Quantity kind: Papp (×10⁻⁶ cm/s)
Respond with the bare value in ×10⁻⁶ cm/s.

Q: Consider the compound O=C1COc2ccc(N3CCOC[C@H]3c3ccccc3)cc2N1 and give its recorded Papp.
Ans: 29.3

* * *

assay: Fraction unbound in dog plasma; assay type: ADME, cell-free, Canis lupus familiaris
Quantity kind: fraction unbound
// return just the number, without any unit appended

Q: Tell me its fraction unbound given C[C@@H]1CN(c2ccc3c(n2)NC(=O)CO3)[C@H](c2ccccc2)CO1 as the entry.
Ans: 0.136

* * *

molecular target: UniProt P04150; assay: Binding affinity to GR (unknown origin) expressed in human IM9 cells; assay type: cell-based
Quantity kind: IC50 (µM)
Give the number; µM is assumed, so skip it.

Q: Output IC50 of C[C@@H]1CN(c2ccc3c(n2)NC(=O)CO3)[C@H](c2ccccc2)CO1
Ans: 0.597
